Ref: a melting point compilation (Tetko et al.)

Cond: a range is the spread between reports
Readout type: melting point

Request the reported melting point associated with O=S(=O)(Cl)c1ccc(Br)cc1
75 to 76 °C

Request the reported melting point associated with Nc1c(Cl)cc([N+](=O)[O-])cc1Cl
189 to 191 °C

Request the reported melting point associated with CCc1ccc2ccccc2c1
-7.45 to -7.35 °C

Request the reported melting point associated with Brc1cnc2ccccc2c1
13.3 to 14 °C

Request the reported melting point associated with Nc1ncccn1
125 to 128 °C

Request the reported melting point associated with CC(=O)OCC(C)C
-99 to -98.8 °C

Request the reported melting point associated with CC(Cl)C(Cl)(Cl)Cl (stereo not given)
-65 to -64 °C

Request the reported melting point associated with CCCCCCCCCCCCCCCCCC(=O)OCC
33 to 35 °C

Request the reported melting point associated with N[C@@H](Cc1c[nH]cn1)C(=O)O
282 to 287 °C

Request the reported melting point associated with C1COCCN1
-5 to -4.8 °C

Request the reported melting point associated with COC(=O)c1cccc(C(=O)OC)c1
67.5 to 69 °C

Request the reported melting point associated with O=C1CSC(=O)N1
125 to 128 °C

Request the reported melting point associated with ClC=C(Cl)Cl
-85 to -84.7 °C

Request the reported melting point associated with BrCCCOc1ccccc1
10 to 10.7 °C

Request the reported melting point associated with COc1ccc(C=O)c(C(=O)O)c1OC
147 to 150 °C

Request the reported melting point associated with c1ccc2ncncc2c1
47 to 48 °C

Request the reported melting point associated with O=C(c1ccc(O)cc1O)c1ccc(O)cc1O
201 to 202 °C

Request the reported melting point associated with O=C1C=CC(=O)C=C1
114 to 116 °C

Request the reported melting point associated with C=CCC(C(=O)O)C(=O)O
104 to 105 °C

Request the reported melting point associated with CC(=O)NC(=O)CN
138 to 142 °C

---

Cond: a range is the spread between reports
Give melting point for every item shown.

Request the reported melting point associated with O=C(O)C(F)(F)F
-15.2 to -15 °C

Request the reported melting point associated with COc1cccc(CC(=O)O)c1
70 to 72 °C

Request the reported melting point associated with O=C(O)c1cccc([N+](=O)[O-])c1
141 to 142 °C

Request the reported melting point associated with CCCCCCCCCCCCCCCCCCN
52.9 to 56 °C

Request the reported melting point associated with O=C(O)c1c(F)cc(F)cc1F
141 to 143 °C

Request the reported melting point associated with CC(C)(C)S
-0.5 to 1 °C

Request the reported melting point associated with OCCc1ccc(O)cc1
90 to 91 °C

Request the reported melting point associated with COC(=O)NN
72 to 73 °C

Request the reported melting point associated with CCCC(=O)O
-8 to -5 °C

Request the reported melting point associated with NC(=O)C(F)(F)F
72.5 to 73 °C

Request the reported melting point associated with Cc1ccc(N)cc1C
50 to 51 °C

Request the reported melting point associated with O=[N+]([O-])c1ccc(F)cc1O
33 to 36 °C

Request the reported melting point associated with CC(=O)Nc1ccc(C)cc1
149 to 152 °C

Request the reported melting point associated with Oc1ccc2[nH]ccc2c1
108 to 109 °C

Request the reported melting point associated with COc1cc(C=CCO)ccc1O
74 to 76 °C

Request the reported melting point associated with CCOC(=O)c1ccc([N+](=O)[O-])cc1
57 to 58 °C

Request the reported melting point associated with C#CCCCCCCCCCCCCCCCC
22.5 to 27 °C

Request the reported melting point associated with CC(C)=CC(C)C
-128 °C

Request the reported melting point associated with Oc1ccc(Cl)cc1
41 to 44 °C

Request the reported melting point associated with O=[N+]([O-])c1cc(F)ccc1F
-12 to -11.7 °C

Request the reported melting point associated with CC(C)(C)c1ccc(O)c(N)c1
161 to 163 °C

Request the reported melting point associated with Cc1ccccc1Cl
-36 to -35 °C

Request the reported melting point associated with O=C1CC(=O)NC(=S)N1
234 to 235 °C

Request the reported melting point associated with CCCCCCCCCCCCCCCC(=O)Cl
11 to 12 °C

Request the reported melting point associated with CCOC(=O)C(C(=O)OCC)C(=O)OCC
28 to 29 °C

Request the reported melting point associated with O=C(O)c1ccccc1Cl
139 to 142 °C

Request the reported melting point associated with CCC(CC)(CC)CC
-33.1 to -33 °C

Request the reported melting point associated with C1=Cc2cccc3cccc1c23
91 to 92.5 °C

Request the reported melting point associated with ClC1=C(Cl)C2(Cl)C3C(Cl)C=CC3C1(Cl)C2(Cl)Cl (stereo not given)
95 to 95.5 °C

Request the reported melting point associated with COc1ccc(Cl)cc1Cl
26 to 28.5 °C

Request the reported melting point associated with CC1CO1 (stereo not given)
-112 °C

Request the reported melting point associated with CCCCCCCCCCI
-16.3 to -16 °C

Request the reported melting point associated with COc1cc(C=O)ccc1O
81.5 to 82 °C

Request the reported melting point associated with NC1CCCCC1
-18 to -17 °C

Request the reported melting point associated with CC1CC2C3CCC4=CC(=O)C=CC4(C)C3(F)C(O)CC2(C)C1(O)C(=O)CO (stereo not given)
262 to 263 °C

Request the reported melting point associated with NS(=O)(=O)c1ccc(Cl)cc1
145 to 146 °C

Request the reported melting point associated with CCCCCCCCS
-49.2 to -49 °C

Request the reported melting point associated with O=[N+]([O-])c1cccc(CBr)c1
58 to 59.3 °C

Request the reported melting point associated with Nc1cccc(N)n1
120 to 122 °C

Request the reported melting point associated with CCCCCCCCCCCCCCCCCCCCCCC
47.6 to 49 °C
